Provide the reported pIC50 of each item.
Biological target: Des1 (h) (Homo sapiens, UniProt O15121)
Construct: endogenous in cells; host or cells: parental Jurkat cells
Sequence (O15121 whole entry): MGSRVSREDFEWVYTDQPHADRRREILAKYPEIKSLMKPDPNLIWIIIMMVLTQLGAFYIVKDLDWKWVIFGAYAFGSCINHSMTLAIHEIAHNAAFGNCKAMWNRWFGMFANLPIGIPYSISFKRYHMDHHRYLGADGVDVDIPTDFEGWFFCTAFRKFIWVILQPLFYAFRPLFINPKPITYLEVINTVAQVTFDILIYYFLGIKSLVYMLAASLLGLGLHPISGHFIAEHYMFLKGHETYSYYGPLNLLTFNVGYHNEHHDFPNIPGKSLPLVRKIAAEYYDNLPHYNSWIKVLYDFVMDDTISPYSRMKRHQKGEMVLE
Experiment: Measurement of Dihydroceramide Desaturase-1 (Des-1) activity in intact Jurkat cells labeled with DhCer-C6-NBD (HPLC)
Assay type: cell-based
Conditions: intact Jurkat cells; given as concentration range, or <X / >X if measured at one concentration X only; read-out: Des1 (h) Jurkat IC50
Method: Measurement of Dihydroceramide Desaturase-1 (Des-1) Activity Compounds were assessed for Des-1 inhibitory activity. […] Extracted samples (50 ul) were analysed on a Waters HPLC coupled to a fluorescence detector using a 30 cm C18 reverse-phase column eluted with 1 ml/min 20% H2O and 80% acetonitrile, both with a 0.1% of trifluoroacetic acid. NBD-labelled substrate and product were quantitated with an excitation and emission wavelengths of 465 nm and 530 nm, respectively.
pIC50: −log10 of the molar value.

The following compounds each have a reported value; give each one's pIC50.
1. N/C(=N/O)c1cnc(Nc2ncc(-c3ccc(Cl)cn3)o2)cn1
2. N/C(=N/O)c1ccc(Nc2ncc(-c3ccc(C4CC4)cn3)o2)cn1
3. O=C(NO)c1ccc(Nc2nc(-c3ccc(C(F)(F)F)cc3)co2)cn1
4. N/C(=N\O)c1ccc(Nc2ncc(-c3ccc(C(F)(F)F)nc3)o2)cn1
5. N/C(=N\O)c1ccc(Nc2ncc(-c3ccc(C4CC4)cc3)o2)cn1
6. N/C(=N\O)c1ccc(Nc2nc(-c3ccc(Cl)cn3)no2)cn1

1. > 6.00
2. < 6.00
3. 6.00 to 7.00
4. > 6.00
5. < 6.00
6. < 6.00

List reported pIC50 for each of these compounds:
1. Oc1cnc(Nc2ncc(-c3ccc(C(F)(F)F)cc3)o2)cc1O
2. N=C(NCC(O)CO)c1ccc(Nc2ncc(-c3ccc(C(F)(F)F)cc3)o2)cn1 (racemic)
3. N/C(=N\O)c1cnc(Nc2nc(-c3ccc(Cl)cn3)no2)cn1

> 6.00
< 6.00
< 6.00

---

Molecular target: Des1 (h) (Homo sapiens, UniProt O15121)
Construct: endogenous in cells; host or cells: parental Jurkat cells
Experiment: Measurement of Dihydroceramide Desaturase-1 (Des-1) activity in intact Jurkat cells labeled with DhCer-C6-NBD (HPLC)
Type: cell-based
Details: intact Jurkat cells; given as concentration range, or <X / >X if measured at one concentration X only; read-out: Des1 (h) Jurkat IC50
Where a name gives a salt, the structure may show the parent alone.
property.label: IC50

• N/C(=N\O)c1ncc(Nc2ncc(-c3ccc(C(F)(F)F)cn3)o2)cc1O [Example 40, hydrochloride] = 0.01 to 0.1 µM
• N/C(=N\O)c1ccc(Nc2ncc(-c3ccc(Cl)cn3)o2)cn1 [Compound 90] = < 1 µM
• CNNC(=O)c1ccc(Nc2ncc(-c3ccc(C(F)(F)F)cc3)o2)cn1 [Compound 94] = > 1 µM
• N/C(=N\O)c1ccc(Nc2ncc(-c3ccc(C(F)(F)F)c(F)c3)o2)cn1 [Example 45] = < 0.1 µM
• CN(O)S(=O)(=O)c1ccc(Nc2ncc(-c3ccc(C(F)(F)F)cc3)o2)cn1 [Example 15] = > 1 µM
• N=C(NO)c1cc(Nc2ncc(-c3ccc(C(F)(F)F)cc3)o2)ncc1O [Example 50] = < 1 µM
• N/C(=N/O)c1cnc(Nc2ncc(-c3ccc(OC(F)(F)F)cc3)o2)cn1 [Example 70] = < 1 µM
• N/C(=N\O)c1ccc(Nc2ncc(-c3ccc(C(F)(F)F)cn3)o2)nn1 [Example 61] = < 0.1 µM

For every listed record, write down its IC50.
1. N/C(=N\O)c1cnc(Nc2ncc(-c3ccc(Cl)cc3)o2)cn1 [Compound 101]
2. O=c1cc(Nc2nnc(-c3ccc(C(F)(F)F)cc3)o2)ccn1O [Example 7]
3. ONc1ccc(Nc2ncc(-c3ccc(C(F)(F)F)cc3)o2)cn1 [Example 4]
4. O=C(NO)c1ccc(Nc2ncc(-c3ccc(C(F)(F)F)cc3)o2)cn1 [Example 2]
5. CC(C)N(O)C(=O)c1ccc(Nc2ncc(-c3ccc(C(F)(F)F)cc3)o2)cn1 [Example 34]
6. N/C(=N\O)c1ccc(Nc2cc(-c3ccc(C(F)(F)F)cc3)no2)cn1 [Example 89]

["< 1 µM", "< 1 µM", "1 to 10 µM", "0.1 to 1 µM", "> 1 µM", "< 1 µM"]

For every listed record, write down its IC50.
1. O=C(NO)c1ncc(Nc2ncc(-c3ccc(C(F)(F)F)cc3)o2)cn1 [Example 10]
2. N/C(=N\O)c1ccc(Nc2nc(-c3ccc(C(F)(F)F)cn3)no2)cn1 [Example 84]
3. Cn1nc(-c2ccc(C(F)(F)F)cn2)cc1Nc1ccc(/C(N)=N\O)nc1 [Example 76]

1 to 10 µM
> 1 µM
> 1 µM
